System: KM20L2 colon
MEASUREMENT_DESCRIPTION: NCI tumour cell line growth inhibition, 48 h
# key: entry, value: TGI

Solved cases below.
Cc1nc2c(c(=O)[nH]1)S/C(=C(/C#N)c1nc3ccccc3[nH]1)N2c1ccccc1 = > 100 µM
CCN(CC)CC(C)(C)C(=O)/C=C/c1cccc(/C=C/C(=O)C(C)(C)CN(CC)CC)c1 = 2.29 µM
CC1=NN(C(=O)c2ccccc2O)C(=O)/C1=C/c1cccc(O)c1 = > 100 µM
CC1=C(O)c2cn(C)cc2C(=O)C1=O = > 100 µM
COc1ccc2c(c1)[n+]([O-])c(-c1ccc([N+](=O)[O-])cc1)c(N)[n+]2[O-] = > 100 µM
C=C=C(C(=O)OC)S(=O)c1ccccc1[N+](=O)[O-] (stereo not given) = > 100 µM
O=S(=O)([O-])c1ccc(N=Cc2ccccc2[O-])cc1.O=S(=O)([O-])c1ccc(N=Cc2ccccc2[O-])cc1.[O]=[U+2]=[O] = > 100 µM
COc1ccc2c(c1O)-c1cc(O)cc3c1[C@@H](C2)N(C)CC3 = 31.2 µM
CC(C)(C)OC(=O)N[C@H]1CC(O)c2ccccc2N(CC(=O)O)C1=O (stereo not given in full) = > 100 µM

Then there is this compound:
I'm curious: which TGI was measured for O=C1CC(c2c(-c3ccccc3)[nH]c3ccccc23)C(=O)N1 (stereo not given) tested on KM20L2 colon?
> 100 µM

====

Test system: PC-3 prostate
MEASUREMENT_DESCRIPTION: NCI tumour cell line growth inhibition, 48 h
QUANTITY_KIND: TGI (µM)
Record the value in µM, omitting the unit from your answer.

# query: TGI of entry COc1cc(C2S/C(=C/c3ccccc3)C(=O)N2c2ccc(NC(C)=O)cc2)cc(OC)c1OC (stereo not given)
48.1

====

Test system: HL-60(TB) leukemia
MEASUREMENT_DESCRIPTION: NCI tumour cell line growth inhibition, 48 h; in the data active means GI50 below about 0.43 µM; inactive means the rest
Form entry, call: pick from label 1 (active), label 0 (inactive)

Examples from the recorded data:
Nc1c(C(=O)c2ccc(-c3cccnc3)cc2)cnn1-c1ccc(F)cc1 = label 0
COc1cc([C@@H]2c3cc4c(c(O)c3C[C@H]3COC(=O)[C@@H]32)OCO4)cc(OC)c1OC = label 0

Proceed to the following item.
Per the records of this test, what outcome belongs to "COc1ccc(/C=C(/C(=O)N2CCN(c3ccccc3)CC2)c2cc(OC)c(OC)c(OC)c2)cc1N" ?
label 1

====

System: RPMI-8226 leukemia
MEASUREMENT_DESCRIPTION: NCI tumour cell line growth inhibition, 48 h; in the data active means GI50 below about 0.43 µM; inactive means the rest
Form entry, call: pick from active, inactive

Per the records of this test, what outcome belongs to "CCC(CC)c1nc(Nc2ccc(C(=O)OC)cc2)c2ccccc2n1" ?
inactive

Try the compound CC(C)(C)N1CCC1CN (configuration not stated)
inactive

Try the compound "CSc1ccc(-c2ccccc(=O)c2O)cc1"
inactive

Try the compound "O=S(=O)([O-])c1ccc(N=Cc2ccccc2[O-])cc1.O=S(=O)([O-])c1ccc(N=Cc2ccccc2[O-])cc1.[O]=[U+2]=[O]"
inactive

Try the compound "CCOC(=O)[C@@H](C)C[C@H](Cc1ccccc1)NC(=O)c1nc([C@@H](C[C@H](C(C)C)N(C)C(=O)[C@@H](NC(=O)[C@H]2CCCCN2C)C(C)C)OC(C)=O)sc1CCOCc1ccccc1"
active

Try the compound NS(=O)(=O)OCC1OC(n2cnc3cncnc32)C(O)C1O (configuration not stated)
active

Try the compound "O=C(/C=C/c1ccco1)c1cc(F)c(Cl)cc1Cl"
inactive

====

Tested on: OVCAR-4 ovarian
MEASUREMENT_DESCRIPTION: NCI tumour cell line growth inhibition, 48 h
QUANTITY_KIND: TGI (µM)
Record the value in µM, omitting the unit from your answer.

CC(C)(C)n1c(=O)n2n(c1=O)Cc1cccc3cccc(c13)C2 = 50.3

I'm curious: which TGI was measured for "NC1=CC(=O)c2cccnc2C1=O" tested on OVCAR-4 ovarian?
2.78

Try the compound "COc1ccc(-c2csc(=Nc3ccccc3)n2CCCN(C)C)cc1"
65.6

Try the compound C=C1CCCC2[C@](C)(CC3=C(Cl)C(=O)C=C(OC)C3=O)C(C)CC[C@]12C (stereo not given in full)
14.2

Try the compound "CN1CCC(COc2cnc(-c3cccc(Cn4nc(-c5cccc(C#N)c5)ccc4=O)c3)nc2)CC1"
5.32

Try the compound CC(=O)OC(CN1CCN(c2ccccn2)CC1)Cn1sc2nc(C)cc(C)c2c1=O (stereo not given)
55.4

====

# key: entry, value: TGI
System: COLO 205 colon
MEASUREMENT_DESCRIPTION: NCI tumour cell line growth inhibition, 48 h

Solved cases below.
O=C(Cn1cc(-c2ccccc2)nn1)NC1CCCCC1 = > 100 µM
NC(=S)N/N=C/c1nccc2ccccc12 = > 100 µM
Cn1c(NNc2ccccc2)cc(=O)[nH]c1=O = > 100 µM

# query: TGI of entry "Cc1c(C)c(C)c(CC2(C)CSC2)c(CC2(C)CSC2)c1C"
> 100 µM

Try the compound COC(=O)CCC(C)[C@H]1CCC2C3C(C[C@H](OC(C)=O)[C@@]21C)[C@@]1(C)CCC2(C[C@H]1C[C@H]3OC(C)=O)OOC1(CCCC1)OO2 (stereo partly specified)
> 100 µM

Try the compound "Nc1ccccc1NC(=O)c1ccc(CNc2nccc(-c3cccnc3)n2)cc1"
2.06 µM

Try the compound "O=c1[nH]nc(Cc2ccc(Cl)cc2)n1/N=C/c1ccco1"
> 100 µM

Try the compound "CC1=C(O)c2cn(C)cc2C(=O)C1=O"
> 100 µM

Try the compound c1ccc(N2N=C(c3cccc(Nc4ccncc4)c3)CC2c2ccc3c(c2)OCO3)cc1 (stereo unspecified)
3.84 µM

Try the compound "CSc1ccc(-c2ccccc(=O)c2O)cc1"
> 100 µM

Try the compound "Nc1c(C(=O)c2ccc(-c3cccnc3)cc2)cnn1-c1ccc(F)cc1"
> 25 µM

====

System: OVCAR-4 ovarian
MEASUREMENT_DESCRIPTION: NCI tumour cell line growth inhibition, 48 h
QUANTITY_KIND: TGI (µM)
Record the value in µM, omitting the unit from your answer.

CCOC(=O)C1SC(=Nc2cccc(Cl)c2C)N=C1C (stereo not given) = 89.5
COc1cc2nc(Nc3cccc(Br)c3)nc(Nc3cccc(Br)c3)c2cc1OC = 30.9
CCCC(=O)Nc1cc(/C=C/C(=O)N2CC(CCl)c3c2cc(OCc2ccccc2)c2[nH]cc(C)c32)n(C)c1 (stereo not given) = 0.889
COC1C(CO)OC(n2c3ccccc3c3c4c(c5c6ccccc6[nH]c5c32)C(=O)NC4=O)C(O)C1O (stereo not given) = 17.7
COc1ccc2c(c1O)-c1cc(O)cc3c1[C@@H](C2)N(C)CC3 = 125

# query: TGI of entry "c1ccc([CH2][Sn]([CH2]c2ccccc2)([O]c2cccc3cccnc23)[O]c2cccc3cccnc23)cc1"
0.374

Try the molecule COC(=O)CCC(C)[C@H]1CCC2C3C(C[C@H](OC(C)=O)[C@@]21C)[C@@]1(C)CCC2(C[C@H]1C[C@H]3OC(C)=O)OOC1(CCCC1)OO2 (stereo not given in full)
87.6

Try the molecule "C=CCc1[nH]c2c(OCc3ccccc3)cc(N(CC=C)C(C)=O)cc2c1C"
23.6

====

# key: entry, value: TGI
Tested on: LOX IMVI melanoma
MEASUREMENT_DESCRIPTION: NCI tumour cell line growth inhibition, 48 h
Record the value in µM, omitting the unit from your answer.

Solved cases below.
O=c1cc(-c2ccccc2)oc2ccc(OC/C(=N/O)c3ccccc3)cc12 = 20.2
c1ccc([CH2][Sn]([CH2]c2ccccc2)([O]c2cccc3cccnc23)[O]c2cccc3cccnc23)cc1 = 1.65
CCOC(=O)[C@@H](C)C[C@H](Cc1ccccc1)NC(=O)c1nc([C@@H](C[C@H](C(C)C)N(C)C(=O)[C@@H](NC(=O)[C@H]2CCCCN2C)C(C)C)OC(C)=O)sc1CCOCc1ccccc1 = 1.54
C[C@]12CCc3nc(Nc4cccc(O)c4)sc3C1=CC[C@@H]1[C@@H]2CC[C@]2(C)/C(=N\NC(N)=S)CC[C@@H]12 = 2.85
Cc1ccc(Cl)cc1Nc1nc(C(F)(F)F)ccc1C(=O)N/N=C/c1cccnc1 = 13.6

Then there is this compound:
I'm curious: which TGI was measured for "COc1c(O)c(OC)c2oc(-c3ccc(O)c(O)c3)c(OC)c(=O)c2c1O" tested on LOX IMVI melanoma?
95.9

====

Tested on: RXF 393 renal
MEASUREMENT_DESCRIPTION: NCI tumour cell line growth inhibition, 48 h
# key: entry, value: GI50

Solved cases below.
CCOC(=O)c1ccccc1OC(=O)NNc1ccccc1 = > 100 µM
CCCCCCCC/C=C/CCCCCCCC1=NC(C)(C)CN1CC(C)O (stereo not given) = 1.53 µM
C=C(C)[C@@H]1CC[C@]2(COCCC#N)CC[C@]3(C)[C@H](CC[C@@H]4[C@@](C)(CCCNCCC#N)[C@H](C(=C)C)CC[C@]43C)[C@@H]12 = 7.44 µM

# query: GI50 of entry "Cc1cc(Nc2ccc(OCc3ccccc3)cc2)nc2cc(O)ccc12"
2.95 µM

Try the compound "Nc1c(C(=O)c2ccc(-c3cccnc3)cc2)cnn1-c1ccc(F)cc1"
14.5 µM
